Source listed as patent US20240408169A1.

Biological target: CyclinA2/CDK2 (Homo sapiens)
Construct: purchased CRELUX Protein Services
Assay: Fluorescence Polarization (FP) competitive binding assay, Cyclin A2/Cdk2
Details: 8 nM Cyclin A2/Cdk2, 2 nM FAM probe; average of 2-3 independent experiments; read-out: Cyclin A FP IC50
*1 amine or outer side, *2 acyl side, *3 side chain or, on linkers, in order; H or OH if unused. Where a SMILES comes first, the peptide text is derived from it. Bridges are numbered along the chain shown (N, C = ends). [ ]: non-standard residue; d: D form. The star is where a group is joined. NMehhhLys(Me) = CN([C@@H](CCCCCCCN(C)[*:3])C(=O)[*:2])[*:1]; X176 = CN([C@@H](Cc1cc(F)ccc1-c1cccnc1)C(=O)[*:2])[*:1]; NMe(hhhLys) = CN([C@@H](CCCCCCCN[*:3])C(=O)[*:2])[*:1]; Cyclopropanecarbonyl(1-CF3) = O=C(C1(C(F)(F)F)CC1)*; cBuCO(3,3-F2-1-CF3) = O=C(C1(C(F)(F)F)CC(F)(F)C1)*; NMePhe(2,5-Cl2) = CN[C@@H](Cc1cc(Cl)ccc1Cl)C(=O)O; Pro(trans-4-F) = O=C(O)[C@@H]1C[C@@H](F)CN1; Gly(cPr) = N[C@H](C(=O)O)C1CC1
MEASURED_METRIC: pIC50
The scale used: pIC50 is minus the common logarithm of the concentration in molar units.

COMPOUND	pIC50
CC(C)C[C@@H]1NC(=O)[C@@H](N(C)C(=O)[C@@H](NC(=O)[C@@H]2C[C@@H](F)CN2C(=O)C2(C(F)(F)F)CC(F)(F)C2)C2CC2)CCCCCCCN(C)C(=O)[C@H](Cc2cc(F)ccc2-c2cccnc2)N(C)C1=O [Example 271] ({cBuCO(3,3-F2-1-CF3)}-[Pro(trans-4-F)][Gly(cPr)][NMehhhLys(Me)]L[X176]; lactam 3-C)	7.52
CC(=O)N1CC=C(c2ccc(Cl)cc2C[C@H]2C(=O)NCCC=CCCC[C@H](N(C)C(=O)[C@@H](NC(=O)[C@@H]3C[C@@H](F)CN3C(=O)C3(C(F)(F)F)CC(F)(F)C3)C3CC3)C(=O)N[C@@H](CC(C)C)C(=O)N2C)CC1	7.10

Continue with the next compound.
# query: pIC50 | item CC(C)C[C@@H]1NC(=O)[C@@H](N(C)C(=O)[C@@H](NC(=O)[C@@H]2C[C@@H](F)CN2C(=O)C2(C(F)(F)F)CC2)C2CC2)CCCCCCCNC(=O)[C@H](Cc2cc(Cl)ccc2Cl)N(C)C1=O [Example 9] ({Cyclopropanecarbonyl(1-CF3)}-[Pro(trans-4-F)][Gly(cPr)][NMe(hhhLys)]L[NMePhe(2,5-Cl2)]; lactam 3-C) | system: CyclinA2/CDK2 (Homo sapiens)
6.60

====

Biological target: CyclinB1/CDK1 (Homo sapiens, UniProt P14635)
Construct: purchased Eurofins, discovery 14-450
Assay: Fluorescence Polarization (FP) competitive binding assay, Cyclin B1/Cdk1;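 also: fluorescence polarization read after equilibration at room temperature, with IC50 taken from serially diluted dose-response curves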
Details: 10 nM Cyclin B1/Cdk1, 2 nM FAM probe; average of 2-3 independent experiments; read-out: Cyclin B FP IC50
*1 amine or outer side, *2 acyl side, *3 side chain or, on linkers, in order; H or OH if unused. Where a SMILES comes first, the peptide text is derived from it. Bridges are numbered along the chain shown (N, C = ends). [ ]: non-standard residue; d: D form. The star is where a group is joined. NMePhe(2-(4-MorPh),5-Cl) = CN[C@@H](Cc1cc(Cl)ccc1-c1ccc(N2CCOCC2)cc1)C(=O)O; X149 = CN([C@@H](Cc1cc(Cl)ccc1-c1ccnc(N2CCOCC2)c1F)C(=O)[*:2])[*:1]; NMehhhLys(Me) = CN([C@@H](CCCCCCCN(C)[*:3])C(=O)[*:2])[*:1]; cBuCO(3,3-F2-1-CF3) = O=C(C1(C(F)(F)F)CC(F)(F)C1)*; Pro(trans-4-F) = O=C(O)[C@@H]1C[C@@H](F)CN1; Gly(cPr) = N[C@H](C(=O)O)C1CC1; X77 = CC(F)(C(=O)*)C(F)(F)F
Listed compounds paired with reported pIC50
The scale used: pIC50 is minus the common logarithm of the concentration in molar units.

COMPOUND	pIC50
CC(C)C[C@@H]1NC(=O)[C@@H](N(C)C(=O)[C@@H](NC(=O)[C@@H]2C[C@@H](F)CN2C(=O)C(C)(F)C(F)(F)F)C2CC2)CCCCCCCN(C)C(=O)[C@H](Cc2cc(Cl)ccc2-c2ccc(N3CCOCC3)cc2)N(C)C1=O (stereo partly drawn) [Example 377] (X77-[Pro(trans-4-F)][Gly(cPr)][NMehhhLys(Me)]L[NMePhe(2-(4-MorPh),5-Cl)]; lactam 3-C)	7.70

Name the recorded pIC50 for CC(C)C[C@@H]1NC(=O)[C@@H](N(C)C(=O)[C@@H](NC(=O)[C@@H]2C[C@@H](F)CN2C(=O)C2(C(F)(F)F)CC(F)(F)C2)C2CC2)CCCCCCCN(C)C(=O)[C@H](Cc2cc(Cl)ccc2-c2ccnc(N3CCOCC3)c2F)N(C)C1=O [Example 349] ({cBuCO(3,3-F2-1-CF3)}-[Pro(trans-4-F)][Gly(cPr)][NMehhhLys(Me)]L[X149]; lactam 3-C) .
7.70

What about this compound? CC(C)C[C@@H]1NC(=O)[C@@H](N(C)C(=O)[C@@H](NC(=O)[C@@H]2C[C@@H](F)CN2C(=O)C2(C(F)(F)F)CC(F)(F)C2)C2CC2)CCCC=CCCNC(=O)[C@H](Cc2cc(Cl)ccc2-c2cnn(C)c2)N(C)C1=O
7.70

====

Listed compounds paired with reported IC50
Molecular target: CyclinE1/CDK2 (Homo sapiens)
Construct: purchased Eurofins, discovery 14-475
Test: Fluorescence Polarization (FP) competitive binding assay, Cyclin E1/Cdk2;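 also: readings taken after two-hour equilibration at room temperature in HEPES buffer with NaCl, DTT, NP-40 and BSA, IC50 fitted from eight-concentration serial dilution series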
Details: 10 nM Cyclin E1/Cdk2, 2 nM FAM probe; average of 2-3 independent experiments; read-out: Cyclin E FP IC50
*1 amine or outer side, *2 acyl side, *3 side chain or, on linkers, in order; H or OH if unused. Where a SMILES comes first, the peptide text is derived from it. Bridges are numbered along the chain shown (N, C = ends). [ ]: non-standard residue; d: D form. The star is where a group is joined. X38 = CN([C@@H](Cc1cc(Cl)ccc1-c1ccc(N2C[C@H]3COC[C@H]3C2)cc1)C(=O)[*:2])[*:1]; X8 = CN1CCN(C2CC=C(c3ccc(Cl)cc3C[C@@H](C(=O)[*:2])N(C)[*:1])CC2)CC1; NMehhhLys(Me) = CN([C@@H](CCCCCCCN(C)[*:3])C(=O)[*:2])[*:1]; cBuCO(3,3-F2-1-CF3) = O=C(C1(C(F)(F)F)CC(F)(F)C1)*; Pro(trans-4-F) = O=C(O)[C@@H]1C[C@@H](F)CN1; Gly(cPr) = N[C@H](C(=O)O)C1CC1
Just the number in µM, nothing appended.

COMPOUND	VAL
CC(C)C[C@@H]1NC(=O)[C@@H](N(C)C(=O)[C@@H](NC(=O)[C@@H]2C[C@@H](F)CN2C(=O)C2(C(F)(F)F)CC(F)(F)C2)C2CC2)CCCCCCCN(C)C(=O)[C@H](Cc2cc(Cl)ccc2C2=CCC(N3CCN(C)CC3)CC2)N(C)C1=O (stereo partly drawn) [Example 376] ({cBuCO(3,3-F2-1-CF3)}-[Pro(trans-4-F)][Gly(cPr)][NMehhhLys(Me)]L[X8]; lactam 3-C)	1.33

Continue with the next compound.
# query: IC50 | item CC(C)C[C@@H]1NC(=O)[C@@H](N(C)C(=O)[C@@H](NC(=O)[C@@H]2C[C@@H](F)CN2C(=O)C2(C(F)(F)F)CC(F)(F)C2)C2CC2)CCCCCCCN(C)C(=O)[C@H](Cc2cc(Cl)ccc2-c2ccc(N3C[C@H]4COC[C@H]4C3)cc2)N(C)C1=O [Example 363] ({cBuCO(3,3-F2-1-CF3)}-[Pro(trans-4-F)][Gly(cPr)][NMehhhLys(Me)]L[X38]; lactam 3-C) | system: CyclinE1/CDK2 (Homo sapiens)
0.47

====

Target: CyclinA2/CDK2 (Homo sapiens, UniProt P20248)
Construct: purchased CRELUX Protein Services
Assay: Fluorescence Polarization (FP) competitive binding assay, Cyclin A2/Cdk2;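 also: plates equilibrated two hours at room temperature before polarization reading, IC50 fitted from eight-concentration compound titration curves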
Settings: 8 nM Cyclin A2/Cdk2, 2 nM FAM probe; average of 2-3 independent experiments; read-out: Cyclin A FP IC50
*1 amine or outer side, *2 acyl side, *3 side chain or, on linkers, in order; H or OH if unused. Where a SMILES comes first, the peptide text is derived from it. Bridges are numbered along the chain shown (N, C = ends). [ ]: non-standard residue; d: D form. The star is where a group is joined. NMePhe(5-Cl,2-O(2-Pym)) = CN[C@@H](Cc1cc(Cl)ccc1Oc1ncccn1)C(=O)O; NMe(hhhLys) = CN([C@@H](CCCCCCCN[*:3])C(=O)[*:2])[*:1]; cBuCO(3,3-F2-1-CF3) = O=C(C1(C(F)(F)F)CC(F)(F)C1)*; Pro(trans-4-F) = O=C(O)[C@@H]1C[C@@H](F)CN1; Gly(cPr) = N[C@H](C(=O)O)C1CC1
Listed compounds paired with reported IC50
Just the number in nM, nothing appended.

COMPOUND	ASSAY_SYSTEM	IC50 (nM)
CC(C)C[C@@H]1NC(=O)[C@@H](N(C)C(=O)[C@H](CCC(=O)N2CCN(C)CC2)NC(=O)[C@@H]2C[C@@H](F)CN2C(=O)C2(C(F)(F)F)CC(F)(F)C2)CCCCCCCN(C)C(=O)[C@H](Cc2cc(Cl)ccc2-c2ccc(N3CCOCC3)cc2)N(C)C1=O [Example 420]	CyclinA2/CDK2 (Homo sapiens, UniProt P20248)	20

Continue with the next compound.
Name the recorded IC50 for CC(C)C[C@@H]1NC(=O)[C@@H](N(C)C(=O)[C@@H](NC(=O)[C@@H]2C[C@@H](F)CN2C(=O)C2(C(F)(F)F)CC(F)(F)C2)C2CC2)CCCCCCCNC(=O)[C@H](Cc2cc(Cl)ccc2Oc2ncccn2)N(C)C1=O [Example 154] ({cBuCO(3,3-F2-1-CF3)}-[Pro(trans-4-F)][Gly(cPr)][NMe(hhhLys)]L[NMePhe(5-Cl,2-O(2-Pym))]; lactam 3-C) .
150
